Numbers sourced from ChEMBL document CHEMBL1201862.

# reported GI50; entries follow
- Tested on: T47D
- method-notes: NCI tumour cell line growth inhibition, 48 h
Activity calls are given as the source filed them. No stated cut-off is given here; in the data, active = GI50 up to about 1.1 µM and inactive = higher.
measured-property: GI50

[
  {
    "compound": "C[C@@H](NC(=O)c1ccc(CNC(=O)/C=C/c2cccc(Oc3ccccc3)c2)cc1)c1ccccc1",
    "test-value": "27.7 µM (inactive)"
  },
  {
    "compound": "CNCCCNC1(c2cc3ccccc3s2)CCCCC1",
    "test-value": "4.92 µM (inactive)"
  },
  {
    "compound": "O=C(c1cccs1)c1nccc2c1cnc1ccccc12",
    "test-value": "> 100 µM (inactive)"
  },
  {
    "compound": "O=c1cc(CNC2CC3CCC2C3)[nH]c(=O)[nH]1 (configuration not stated)",
    "test-value": "> 100 µM (inactive)"
  },
  {
    "compound": "Cc1c(C)c(C)c(-n2c(=O)n(C)c(=O)n2C(C)(C)C)c(C)c1C",
    "test-value": "> 100 µM (inactive)"
  },
  {
    "compound": "COc1cc2c3c(c1)c1cc(OC)c(OC)cc1c[n+]3CC2",
    "test-value": "5.35 µM (inactive)"
  },
  {
    "compound": "CCOc1ccc(NC(=O)/C(=N\\N)C(C(=O)OC)c2nc3ccc(Cl)cc3nc2O)cc1 (configuration not stated)",
    "test-value": "> 100 µM (inactive)"
  }
]

----------
- Tested on: CCRF-CEM
- method-notes: NCI tumour cell line growth inhibition, 48 h
Active and inactive are the calls of the source. Rule as the data show it: active = GI50 up to about 1.1 µM and inactive = higher.
Outcome codes: Y for active, N for inactive

[
  {
    "compound": "Cc1ccc(S(=O)(=O)c2c(N)c3nc4ccccc4n3c3nc4ccccc4nc23)cc1",
    "tested-system": "CCRF-CEM",
    "assigned-label": "N"
  },
  {
    "compound": "O=c1[nH]c2cc3cccnc3c(Cl)c2nc1CBr",
    "tested-system": "CCRF-CEM",
    "assigned-label": "N"
  },
  {
    "compound": "CCCCCCCCCCCCC(=O)OC(c1cnco1)c1nc(C(O)CC(O)C(O)C(C)O)co1 (stereo not given)",
    "tested-system": "CCRF-CEM",
    "assigned-label": "Y"
  },
  {
    "compound": "C=CC[P@]1(=O)O[C@H](c2ccccc2)C(C)N1C(C)C (stereo not given in full)",
    "tested-system": "CCRF-CEM",
    "assigned-label": "N"
  },
  {
    "compound": "CNC1C(O)CC(OC2C/C=C(\\C)C/C(C)=C/C=C/CCC(C)CNC(=O)/C=C/C=C/C2C)OC1C (stereo not given)",
    "tested-system": "CCRF-CEM",
    "assigned-label": "Y"
  }
]

----------
- System: OVCAR-5
- method-notes: NCI tumour cell line growth inhibition, 48 h
Calls of active or inactive are those of the source. No stated cut-off is given here; in the data, active = GI50 up to about 1.1 µM and inactive = higher.
Outcome codes: yes (active), no (inactive)

[
  {
    "compound": "COC(=O)C1C(O)CCC2CN3CCc4c([nH]c5ccccc45)C3CC21 (stereo not drawn)",
    "tested-system": "OVCAR-5",
    "assigned-label": "no"
  },
  {
    "compound": "Nc1nc(NCCO)c(N=O)c(=O)[nH]1",
    "tested-system": "OVCAR-5",
    "assigned-label": "no"
  },
  {
    "compound": "CC(NNC(=O)c1cc[n+]([BH2-]C#N)cc1)c1cccc(C(F)(F)F)c1 (stereo not drawn)",
    "tested-system": "OVCAR-5",
    "assigned-label": "no"
  },
  {
    "compound": "N#CC(C#N)=C1SC(=N\\c2ccccc2)/C(=N/c2ccccc2)N1c1ccccc1",
    "tested-system": "OVCAR-5",
    "assigned-label": "no"
  },
  {
    "compound": "O=C1ON(Cc2ccccc2)C(c2ccccc2)N1c1ccccc1 (stereo not drawn)",
    "tested-system": "OVCAR-5",
    "assigned-label": "no"
  },
  {
    "compound": "Cc1ccc(/C=N/Nc2ccc3ccccc3n2)s1",
    "tested-system": "OVCAR-5",
    "assigned-label": "no"
  },
  {
    "compound": "CC1OC2(CC(OCc3ccccc3)C1OCc1ccccc1)OCCO2 (stereo not drawn)",
    "tested-system": "OVCAR-5",
    "assigned-label": "no"
  },
  {
    "compound": "CC1(C)CCC2(C(=O)OC3OC(CO)C(O)C(O)C3O)CCC3(C)C(=CCC4C5(C)CCC(OC6OC(CO)C(O)C(O)C6O)C(C)(C)C5CCC43C)C2C1 (stereo not drawn)",
    "tested-system": "OVCAR-5",
    "assigned-label": "no"
  },
  {
    "compound": "Cc1ccccc1NC(=O)C(=O)Cc1cnc2ccccc2n1",
    "tested-system": "OVCAR-5",
    "assigned-label": "no"
  },
  {
    "compound": "CCOc1snc(C(Cl)(Cl)Cl)c1Cl",
    "tested-system": "OVCAR-5",
    "assigned-label": "no"
  },
  {
    "compound": "COc1cc2c(/C=C3/C(=O)Nc4ccc(O)cc43)c(Cl)n(Cc3ccccc3)c2cc1C",
    "tested-system": "OVCAR-5",
    "assigned-label": "no"
  },
  {
    "compound": "Cc1cn(C(Cc2ccccc2)OCCO)c(=O)[nH]c1=O (stereo not drawn)",
    "tested-system": "OVCAR-5",
    "assigned-label": "no"
  },
  {
    "compound": "N#CC(NCCc1ccccc1)c1ccccc1 (stereo not drawn)",
    "tested-system": "OVCAR-5",
    "assigned-label": "no"
  },
  {
    "compound": "CC(C)(C)/N=N/C(C)(C)N=C=O",
    "tested-system": "OVCAR-5",
    "assigned-label": "no"
  },
  {
    "compound": "COC(=O)C1=C(C(=O)OC)C2(C)CCC(=O)C1O2 (stereo not drawn)",
    "tested-system": "OVCAR-5",
    "assigned-label": "no"
  },
  {
    "compound": "CCCSc1ccc2[nH]c(/N=C/c3ccccc3)cc2c1",
    "tested-system": "OVCAR-5",
    "assigned-label": "no"
  },
  {
    "compound": "COc1ccc2nccc(NCCCN3CCN(CCCNc4ccnc5ccc(OC)cc45)CC3)c2c1",
    "tested-system": "OVCAR-5",
    "assigned-label": "yes"
  },
  {
    "compound": "N#CC1(C#N)C(=O)c2ccncc2C1=O",
    "tested-system": "OVCAR-5",
    "assigned-label": "no"
  },
  {
    "compound": "Cc1cccc2nc3cccc(C(=O)NCCC[N+](C)(CCCNC(=O)c4cccc5nc6cccc(C)c6nc45)Cc4c([N+](=O)[O-])ncn4C)c3nc12",
    "tested-system": "OVCAR-5",
    "assigned-label": "no"
  },
  {
    "compound": "COc1cc(OC)cc(N(C)Cc2cnc3nc(N)nc(N)c3c2C)c1",
    "tested-system": "OVCAR-5",
    "assigned-label": "yes"
  },
  {
    "compound": "Cc1ccc(S(=O)(=O)N2CCC[C@@H]2C(=O)O[C@@H]2CCC3CC=CC32)cc1 (stereo partly drawn)",
    "tested-system": "OVCAR-5",
    "assigned-label": "no"
  },
  {
    "compound": "COc1c(OC)c(OC)c(C(=O)/C=C/c2ccccc2)c(OC)c1OC",
    "tested-system": "OVCAR-5",
    "assigned-label": "no"
  },
  {
    "compound": "CCOC(=O)c1sc2c(C(=O)OCC)n3cc(C)cc(C)c3c2c1O",
    "tested-system": "OVCAR-5",
    "assigned-label": "no"
  }
]
